Biological target: SARS-CoV-2 Receptor Binding Domain (RBD) protein (SARS-CoV-2, UniProt P0DTC2 319-541)
Test: SPR, scFv captured via anti-V5, RBD as analyte
Each record here notes measured koff.
Field: numeric (s⁻¹). Do not append units.

Task: Tell me the measured koff of COVID19_P08_D04 (scFv, V domains shown) VH: EVQLVESGGGLVQPGGSLRLSCAASGFIFSSYAMNWVRQAPGKGLEWVSGISGSGGGAYYADSVKGRFTISRDNSKNTLYLQMNSLRAEDTAVYYCVTNLDNSRDYFPHYFHDMDVWGQGTLVTVSS VL: DIVMTQSPLSLPVTPGEPASISCRSSQSLLQSNGYNYMDWYLQKPGQSPQLLIYLTSNRAAGVPDRFSGSGSGTDFTLKISRVEAEDVGVYYCQQSYGPPLTFGGGTKVEIKR , please.
Output: 5.7e-05

Task: Tell me the measured koff of COVID19_P07_H01 (scFv, V domains shown) VH: EVQLVESGGGLVQPGGSLRLSCAASGFTFRSYAMHWVRQAPGKGLEWVAVISSDGRNKFYADSVKGRFTISRDNSKNTLYLQMNSLRAEDTAVYYCVTNMDNSRDYFPHYFHDMDVWGQGTLVTVSS VL: DIVMTQSPLSLPVTPGEPASISCRSSQSLLHSNGNNYMDWYLQKPGQSPQLLIYLASQRASGVPDRFSGSGSGTDFTLKISRVEAEDVGVYYCMQALQRPLTFGGGTKVEIKR , please.
Output: 5.7e-05

Task: Tell me the measured koff of COVID19_P19_B04 (scFv, V domains shown) VH: EVQLVESGGGLVQPGGSLRLSCAASGITFNNYAMTWVRQAPGKGLEWVSGISGSGGSTYYADSVKGRFTISRDNSRNTLYLQMNSLRAEDTAVYYCVTQRDNPVDYFPHYFHDMDVWGQGTLVTVSS VL: DIVMTQSPLSLPVTPGEPASISCRSSQSLLYSDGDTYLDWYLQKPGQSPQLLIYLGSIRAPGVPDRFSGSGSGTDFTLKISRVEAEDVGVYYCMQALQVPWTFGGGTKVEIKR , please.
Output: 0.00795

***
Task: Tell me the measured koff of COVID19_P08_G07 (scFv, V domains shown) VH: EVQLVESGGGLVQPGGSLRLSCAASGFTFSTYGMHWVRQAPGKGLEWVSTISGNGVSTSYADSVKGRFTISRDNSKNTLYLQMNSLRAEDTAVYYCVTNMDNSRDYFPHYFHDMDVWGQGTLVTVSS VL: DIVMTQSPLSLPVTPGEPASISCRSSQSLVYSDGYTYLNWYLQKPGQSPQLLIYQVSNRASGVPDRFSGSGSGTDFTLKISRVEAEDVGVYYCMQALQTPALTFGGGTKVEIKR , please.
Output: 0.00072

Task: Tell me the measured koff of COVID19_P19_C03 (scFv, V domains shown) VH: EVQLVESGGGLVQPGGSLRLSCAASGFTFSNSDMNWVRQAPGKGLEWVSRINGDGSTTGYADSVKGRFTISRDNSKNTLYLQMNSLRAEDTAVYYCVTTGDNSRDYFPHYFHDMDVWGQGTLVTVSS VL: DIVMTQSPLSLPVTPGEPASISCRSSQSLLHSNGDTYLDWYLQKPGQSPQLLIYLGSIRAPGVPDRFSGSGSGTDFTLKISRVEAEDVGVYYCQQSYITPWTFGGGTKVEIKR , please.
Output: 0.0058

Task: Tell me the measured koff of COVID19_P19_E01 (scFv, V domains shown) VH: EVQLVESGGGLVQPGGSLRLSCAASGFTFSSYAMHWVRQAPGKGLEWVAVVSRSGGSTFYADSVKGRFTISRDNSKNTLYLQMNSLRAEDTAVYYCVTQRDNSRDYFPHYFHDMDVWGQGTLVTVSS VL: DIVMTQSPLSLPVTPGEPASISCRSSQSLVHSNGDTYLDWYLQKPGQSPQLLIYLGSIRAPGVPDRFSGSGSGTDFTLKISRVEAEDVGVYYCQQSYSTPWTFGGGTKVEIKR , please.
Output: 0.00644

Task: Tell me the measured koff of COVID19_P19_B09 (scFv, V domains shown) VH: EVQLVESGGGLVQPGGSLRLSCAASGFTFSSHTIAWVRQAPGKGLEWLSHISSSGSTTYYADSVKGRFTISRDNSKNTLYLQMNSLRAEDTAVYYCVTQRDNSRDMSPHYFHDMDVWGQGTLVTVSS VL: DIVMTQSPLSLPVTPGEPASISCRSSQSLLDSNGFNYLDWYLQKPGQSPQLLIYLGSSRAPGVPDRFSGSGSGTDFTLKISRVEAEDVGVYYCQQSYNTPWTFGGGTKVEIKR , please.
Output: 0.00313

Task: Tell me the measured koff of COVID19_P20_G06 (scFv, V domains shown) VH: EVQLVESGGGLVQPGGSLRLSCAASGFTFSNSDMNWVRQAPGKGLEWVSGISGGGAGTYYADSVKGRFTISRDNSKNTLYLQMNSLRAEDTAVYYCVTYRDNSRDYFPHYFHDMDVWGQGTLVTVSS VL: DIVMTQSPLSLPVTPGEPASISCRSSQSLVHSNGDTYLDWYLQKPGQSPQLLIYLGSIRAPGVPDRFSGSGSGTDFTLKISRVEAEDVGVYYCQQSYSTPWTFGGGTKVEIKR , please.
Output: 0.000834

Task: Tell me the measured koff of COVID19_P08_G02 (scFv, V domains shown) VH: EVQLVESGGGLVQPGGSLRLSCAASGFTFSSYGMHWIRQAPGKGLEWVSAVSASGDRTHYADSVKGRFTISRDNSKNTLYLQMNSLRAEDTAVYYCVTNLDNSRDYFPHYFHDMDVWGQGTLVTVSS VL: DIVMTQSPLSLPVTPGEPASISCRSSQSLVHSDGYTYLNWYLQKPGQSPQLLIYVGSYRASGVPDRFSGSGSGTDFTLKISRVEAEDVGVYYCMQASQWPPTFGGGTKVEIKR , please.
Output: 0.0001

Task: Tell me the measured koff of COVID19_P19_H07 (scFv, V domains shown) VH: EVQLVESGGGLVQPGGSLRLSCAASGFTFGTSAVSWVRQAPGKGLEWVSAISGSGGSTYYADSVKGRFTISRDNSKNTLYLQMNSLRAEDTAVYYCVTQRDNSRDYFPHYFHDMDVWGQGTLVTVSS VL: DIVMTQSPLSLPVTPGEPASISCRSSQSLLYSDGDTYLDWYLQKPGQSPQLLIYLGSIRAPGVPDRFSGSGSGTDFTLKISRVEAEDVGVYYCMQGLETPWTFGGGTKVEIKR , please.
Output: 0.00786
